Listed here are compounds together with their documented ICW Screen.
Target: EGFR (Homo sapiens, UniProt P00533)
Construct: endogenous in cells; host or cells: A431 cells (ATCC CRL-1555)
Sequence (P00533 25-1210): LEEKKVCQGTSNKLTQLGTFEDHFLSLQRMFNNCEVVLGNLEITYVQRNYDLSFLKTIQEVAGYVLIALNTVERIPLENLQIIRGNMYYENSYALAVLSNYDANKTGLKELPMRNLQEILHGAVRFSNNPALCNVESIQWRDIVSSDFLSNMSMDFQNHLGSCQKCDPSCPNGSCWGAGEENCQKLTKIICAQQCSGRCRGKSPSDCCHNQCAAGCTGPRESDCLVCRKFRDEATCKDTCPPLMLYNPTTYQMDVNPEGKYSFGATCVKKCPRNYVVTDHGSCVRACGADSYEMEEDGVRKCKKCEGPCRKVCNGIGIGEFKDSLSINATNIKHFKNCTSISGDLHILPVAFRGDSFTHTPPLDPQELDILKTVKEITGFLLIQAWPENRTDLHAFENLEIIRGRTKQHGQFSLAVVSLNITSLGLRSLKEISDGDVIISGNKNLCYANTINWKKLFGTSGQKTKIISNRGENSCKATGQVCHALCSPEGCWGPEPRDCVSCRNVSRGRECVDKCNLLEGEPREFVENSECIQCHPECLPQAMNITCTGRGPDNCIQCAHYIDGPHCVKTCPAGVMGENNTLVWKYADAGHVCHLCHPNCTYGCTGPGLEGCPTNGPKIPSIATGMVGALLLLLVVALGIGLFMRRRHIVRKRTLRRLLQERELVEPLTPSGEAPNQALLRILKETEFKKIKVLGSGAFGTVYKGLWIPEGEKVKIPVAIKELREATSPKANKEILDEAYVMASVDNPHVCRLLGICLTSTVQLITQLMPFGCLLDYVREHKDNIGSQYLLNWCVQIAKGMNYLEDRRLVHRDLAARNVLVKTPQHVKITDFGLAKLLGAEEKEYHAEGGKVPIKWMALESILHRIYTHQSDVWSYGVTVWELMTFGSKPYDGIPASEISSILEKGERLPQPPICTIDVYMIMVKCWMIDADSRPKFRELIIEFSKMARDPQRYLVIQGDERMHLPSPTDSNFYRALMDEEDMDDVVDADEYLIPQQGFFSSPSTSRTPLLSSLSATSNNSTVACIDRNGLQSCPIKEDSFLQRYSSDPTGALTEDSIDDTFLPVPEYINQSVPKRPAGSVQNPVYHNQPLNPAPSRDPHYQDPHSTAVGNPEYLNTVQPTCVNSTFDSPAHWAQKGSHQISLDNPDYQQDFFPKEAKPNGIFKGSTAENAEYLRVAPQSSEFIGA
Test: EGFR in-cell Western (ICW) screening protocol
Format: cell-based
Set-up: unit not given here
Details: initial screen

compound | ICW Screen
Cc1ccc2ccc(C(Nc3ccccn3)c3ccc(O)cc3)c(O)c2n1 (stereo not drawn) | 29
Oc1ccc(Br)c(C(Nc2ccccn2)c2ccc3cccnc3c2O)c1 (stereo not drawn) | 9.336
Cc1ccnc(NC(c2ccncc2)c2ccc3cccnc3c2O)c1 (stereo not drawn) | 27
CCOc1cc(C(Nc2cccnc2)c2ccc3cccnc3c2O)ccc1O (stereo not drawn) | 37.96
COc1cc(C(Nc2ccccn2)c2cc(Cl)c3cccnc3c2O)cc(I)c1O (stereo not drawn) | 53.89
CCOc1cc(C(Nc2cc(C)ccn2)c2ccc3ccc(C)nc3c2O)ccc1O (stereo not drawn) | 40.85
COc1ccc(C(Nc2cc(C)ccn2)c2ccc3cccnc3c2O)cc1C (stereo not drawn) | 43.76
Cc1ccnc(NC(c2cc(C)ccc2O)c2ccc3cccnc3c2O)c1 (stereo not drawn) | 40.02
Fc1cccc(C(Nc2ccccn2)c2ccc3cccnc3c2)c1 (stereo not drawn) | 40.32

* * *

Test system: H1975 cells
Assay: H1975 Cell Proliferation Assay (MTT)
Assay type: cell-based
Details: Homo sapiens, NCI-H1975, 72 h, read-out: IC50 Value (μM) H1975 Cells
Class (by IC50) -- bin 1: < 0.2 µM; bin 2: ≥ 0.2 µM and < 0.3 µM; bin 3: ≥ 0.3 µM

compound | classLabel
Oc1c(C(Nc2cc(Cl)c(Cl)cn2)c2ccc(Cl)c(Cl)c2)ccc2cccnc12 (centres unmarked) | bin 2
Oc1c(C(Nc2ccc(C(F)(F)F)cn2)c2ccc(C(F)(F)F)cc2F)ccc2cccnc12 (centres unmarked) | bin 2
Cc1nc(NC(c2cc(Cl)cc(Cl)c2Cl)c2ccc3cccnc3c2O)ccc1Cl (centres unmarked) | bin 1
Oc1c(C(Nc2cc(Cl)ccn2)c2cc(C(F)(F)F)ccc2Cl)ccc2cccnc12 (centres unmarked) | bin 3
Cc1cc(Cl)cnc1NC(c1ccc2cccnc2c1O)c1c(Cl)cccc1Cl (centres unmarked) | bin 3
Oc1c(C(Nc2ccc(Cl)cn2)c2cccc(Cl)c2Cl)ccc2cccnc12 (centres unmarked) | bin 1
Cc1cc(Cl)cnc1NC(c1cccc(Cl)c1Cl)c1ccc2cccnc2c1O (centres unmarked) | bin 2
Cc1cc(Cl)cnc1NC(c1ccc(Cl)cc1)c1ccc2cccnc2c1O (centres unmarked) | bin 1
Cc1ccnc(NC(c2cc(Cl)cc(Cl)c2Cl)c2ccc3cccnc3c2O)c1 (centres unmarked) | bin 2
Cc1ccnc(NC(c2ccc3cccnc3c2O)c2c(F)c(F)c(OCC(F)(F)F)c(F)c2F)c1 (centres unmarked) | bin 2

* * *

Molecular target: EGFR (Homo sapiens)
Construct: endogenous in cells; host or cells: A431 cells (ATCC CRL-1555)
Assay: EGFR in-cell Western (ICW) screening protocol
Type: cell-based
Parameters: unit not given here
Settings: re-test
Rule: ICW Re-Test under 40 gives label 0, otherwise label 1.

compound | classLabel
CCOc1cc(C(Nc2cc(C)ccn2)c2ccc3ccc(C)nc3c2O)ccc1O (stereo not drawn) | label 1
Fc1cccc(C(Nc2ccccn2)c2ccc3cccnc3c2)c1 (stereo not drawn) | label 0
CCC(=O)NC(c1cccs1)c1cc([N+](=O)[O-])c2cccnc2c1O (stereo not drawn) | label 1
CCCC(=O)NC(c1ccc(O)c(OCC)c1)c1cc([N+](=O)[O-])c2cccnc2c1O (stereo not drawn) | label 1
COc1cc(C(Nc2cc(C)ccn2)c2ccc3cccnc3c2O)ccc1O (stereo not drawn) | label 1
Oc1c(C(Nc2cccnc2)c2cccs2)ccc2cccnc12 (stereo not drawn) | label 1
Cc1ccc2ccc(C(Nc3ccccn3)c3ccc(C)s3)c(O)c2n1 (stereo not drawn) | label 1
Oc1c(C(Nc2ccccn2)c2ccccc2F)ccc2cccnc12 (stereo not drawn) | label 0

* * *

Target: EGFR (Homo sapiens)
Construct: endogenous in cells; host or cells: A431 cells (ATCC CRL-1555)
Assay: EGFR in-cell Western (ICW) screening protocol
Type: cell-based
Design: unit not given here
Settings: initial screen
Protocol: The following example describes general EGFR in-cell Western (ICW) screening protocol. Two cell plates were prepared for each compound plate. Serum Starvation: The cells were serum starved prior to compound addition. […] The cell plates were incubated at 37° C./5% CO2 for 2 hours. Prepared compound plates were stored at RT prior to use and at 4° C. long term. […] Data Analysis: The % of Maximum and % Inhibition values were calculated as follows. […]
Assign labels as follows, please: true (1) for ICW Screen below 40; false (0) for ICW Screen equal to or exceeding 40.

compound | classLabel
Oc1c(C(Nc2ccc(OC(F)F)cc2)c2ccccn2)ccc2cccnc12 (stereo not drawn) | false (0)
O=[N+]([O-])c1cccc(C(Nc2cccnc2)c2cc(Cl)c3cccnc3c2O)c1 (stereo not drawn) | false (0)
Oc1c(C(Nc2ccccn2)c2ccc(Cl)cc2Cl)ccc2cccnc12 (stereo not drawn) [compound 10046] | true (1)
Cc1cccc(NC(c2cccc(Cl)c2)c2ccc3cccnc3c2O)n1 (stereo not drawn) | true (1)
CCOc1ccc(NC(c2ccccn2)c2ccc3cccnc3c2O)cc1 (stereo not drawn) [compound 11000] | true (1)
Cc1cccc(NC(c2cccnc2)c2ccc3cccnc3c2O)n1 (stereo not drawn) | false (0)
Cc1ccc(NC(c2ccccc2)c2ccc3cccnc3c2O)cc1 (stereo not drawn) | false (0)
Cc1ccc2ccc(C(Nc3ccccn3)c3ccc(C)s3)c(O)c2n1 (stereo not drawn) | false (0)
Cc1cccc(NC(c2ccc(C(F)(F)F)cc2)c2ccc3cccnc3c2O)n1 (stereo not drawn) [compound 10483] | true (1)
Oc1c(C(Nc2cccc(Cl)c2)c2ccncc2)ccc2cccnc12 (stereo not drawn) | false (0)
CCC(=O)NC(c1cccs1)c1cc([N+](=O)[O-])c2cccnc2c1O (stereo not drawn) | true (1)
CCOc1cc(C(NC(=O)C(C)(C)C)c2cc([N+](=O)[O-])c3cccnc3c2O)ccc1O (stereo not drawn) | true (1)
Cc1cccc(NC(c2ccccn2)c2ccc3ccc(C)nc3c2O)n1 (stereo not drawn) | false (0)
Cc1ccc2ccc(C(Nc3ccccn3)c3ccc(C)c(C)c3)c(O)c2n1 (stereo not drawn) | true (1)
Oc1c(C(Nc2ccccn2)c2cccc(Br)c2)cc(Cl)c2cccnc12 (stereo not drawn) | true (1)
Cc1ccnc(NC(c2ccc3cccnc3c2O)c2c(O)cccc2Cl)c1 (stereo not drawn) | true (1)
CCOc1ccccc1C(Nc1ccccn1)c1ccc2ccc(C)nc2c1O (stereo not drawn) | true (1)
Cc1ccc2ccc(C(Nc3ccccn3)c3ccc(F)cc3)c(O)c2n1 (stereo not drawn) | true (1)

* * *

Assay: Stability on incubation with human liver microsomes (HLM)
Type: in vitro ADME
Conditions: percentage left after incubation with human liver microsomes for 30 minutes
Recorded HLM % Remaining@ 30 Min determines the label; the label ranges are low: < 50%; moderate: ≥ 50% and < 90%; high: ≥ 90%

compound | classLabel
Cc1cc(NC(c2cc(Cl)cc(Cl)c2)c2ccc3cccnc3c2O)ncc1F (stereo not drawn) | high
Oc1c(C(Nc2ccc(C(F)(F)F)nc2)c2ccc(C(F)(F)F)cc2)ccc2cccnc12 (stereo not drawn) | moderate
Oc1c(C(Nc2ccc(Cl)cn2)c2ccc(C(F)(F)F)cc2)ccc2cccnc12 (stereo not drawn) | high
Oc1c(C(Nc2ccc(Cl)cn2)c2ccc(C(F)(F)F)c(F)c2)ccc2cccnc12 (stereo not drawn) | high
Cc1ccnc(NC(c2ccc(Cl)cc2Cl)c2ccc3cccnc3c2O)c1 (stereo not drawn) | low
Cc1cccc(NC(c2ccc(OC(F)(F)F)cc2)c2ccc3cccnc3c2O)n1 (stereo not drawn) | moderate
Cc1cccc(NC(c2cc(Cl)cc(Cl)c2)c2cc(Cl)c3cccnc3c2O)n1 (stereo not drawn) | moderate
Cc1cccc(NC(c2cccc(C(F)(F)F)c2)c2ccc3cccnc3c2O)n1 (stereo not drawn) | low
Cc1cccc(NC(c2cccc(Cl)c2Cl)c2ccc3cccnc3c2O)n1 (stereo not drawn) | moderate
Cc1cc(NC(c2cccc(C(F)(F)F)c2)c2ccc3cccnc3c2O)ncc1Cl (stereo not drawn) | moderate
Cc1c(Cl)cnc(NC(c2cccc(Cl)c2Cl)c2ccc3cccnc3c2O)c1F (stereo not drawn) | high
Cc1ccnc(NC(c2ccccc2Cl)c2ccc3cccnc3c2O)c1 (stereo not drawn) | low
Cc1cccc(NC(c2ccc(C)c(F)c2F)c2ccc3ccc(C)nc3c2O)n1 (stereo not drawn) | low
Cc1cccc(NC(c2ccc3cccnc3c2O)c2c(F)cccc2Cl)n1 (stereo not drawn) | low

* * *

System: H1975 cells
Assay: H1975 Cell Proliferation Assay (MTT)
Format: cell-based
Conditions: Homo sapiens, NCI-H1975, 72 h, read-out: IC50 Value (μM) H1975 Cells
measureName: log10(IC50) (log10 of the value in µM)

compound | systemUnderTest | log10(IC50)
Oc1c(C(Nc2ccc(C(F)(F)F)cn2)c2ccc(Cl)cc2Cl)ccc2cccnc12 (stereo not drawn) [AD4-13033] | H1975 cells | -0.64
Oc1c(C(Nc2cc(Cl)ccn2)c2ccc(C(F)(F)F)cc2F)ccc2cccnc12 (stereo not drawn) [AD4-13046] | H1975 cells | -0.92
Oc1c(C(Nc2ccc(F)cn2)c2cc(Cl)cc(Cl)c2Cl)ccc2cccnc12 (stereo not drawn) [AD4-13111] | H1975 cells | -0.43
Cc1cc(Cl)cnc1NC(c1cccc(Cl)c1)c1ccc2cccnc2c1O (stereo not drawn) [AD4-13159] | H1975 cells | -0.89
Cc1cc(Cl)cnc1NC(c1cc(Cl)cc(Cl)c1Cl)c1ccc2cccnc2c1O (stereo not drawn) [AD4-13167] | H1975 cells | -0.51
Cc1cc(Cl)cnc1NC(c1ccc(C(F)(F)F)cc1F)c1ccc2cccnc2c1O (stereo not drawn) [AD4-13042] | H1975 cells | -0.89
Cc1cc(NC(c2ccc3cccnc3c2O)c2c(Cl)cccc2Cl)ncc1Cl (stereo not drawn) [AD4-13148] | H1975 cells | -0.51
Oc1c(C(Nc2ncc(C(F)(F)F)cc2F)c2ccc(Cl)cc2Cl)ccc2cccnc12 (stereo not drawn) [AD4-13165] | H1975 cells | -0.85
Cc1nc(NC(c2cccc(Cl)c2Cl)c2ccc3cccnc3c2O)c(Cl)cc1Cl (stereo not drawn) [AD4-13211] | H1975 cells | -0.80
Oc1c(C(Nc2cc(Cl)c(Cl)cn2)c2cccc(Cl)c2)ccc2cccnc12 (stereo not drawn) [AD4-13188] | H1975 cells | -0.55
Oc1c(C(Nc2cc(Cl)c(Cl)cn2)c2ccc(Cl)c(C(F)(F)F)c2)ccc2cccnc12 (stereo not drawn) [AD4-13184] | H1975 cells | -0.62
Oc1c(C(Nc2cc(Cl)c(Cl)cn2)c2ccc(Cl)cc2)ccc2cccnc12 (stereo not drawn) [AD4-13187] | H1975 cells | -0.59
Oc1c(C(Nc2ncc(F)cc2F)c2ccc(Cl)c(Cl)c2)ccc2cccnc12 (stereo not drawn) [AD4-13182] | H1975 cells | 0.26
Oc1c(C(Nc2cc(Cl)c(Cl)cn2)c2cc(Cl)cc(Cl)c2Cl)ccc2cccnc12 (stereo not drawn) [AD4-13180] | H1975 cells | -0.07
Cc1cc(Cl)cnc1NC(c1ccc(Cl)c(Cl)c1)c1ccc2cccnc2c1O (stereo not drawn) [AD4-13119] | H1975 cells | -0.92
Oc1c(C(Nc2ncc(F)cc2F)c2ccc(Cl)cc2Cl)ccc2cccnc12 (stereo not drawn) [AD4-13175] | H1975 cells | 0.58
Cc1cc(Cl)cnc1NC(c1cc(Cl)cc(Cl)c1)c1ccc2cccnc2c1O (stereo not drawn) [AD4-13131] | H1975 cells | -1.00
Cc1cc(Cl)cnc1NC(c1cc(Cl)ccc1Cl)c1ccc2cccnc2c1O (stereo not drawn) [AD4-13137] | H1975 cells | -0.92
